Recorded MIC, one value per entry.
# Test system: Staphylococcus aureus
# MEASUREMENT_DESCRIPTION: Antibacterial activity against Staphylococcus aureus BAA-977 expressing iermA by broth microdilution method
# Assay type: functional

# COMPOUND, SYSTEM, QUALIFYING_SIGN, MIC / µg/mL
data = [
    ("CC[C@H]1OC(=O)[C@H](C)[C@@H](O[C@H]2C[C@@](C)(OC)[C@@H](O)[C@H](C)O2)[C@H](C)[C@@H](O[C@@H]2O[C@H](C)C[C@H](N(C)C)[C@H]2O)[C@](C)(O)C[C@@H](C)C(=O)[C@H](C)[C@@H](O)[C@]1(C)O [ERYTHROMYCIN]", "Staphylococcus aureus", ">", 256),
    ("CC[C@H]1OC(=O)[C@@](C)(F)C(=O)[C@H](C)[C@@H](O[C@@H]2O[C@H](C)C[C@H](N(C)C)[C@H]2O)[C@](C)(OC)C[C@@H](C)C(=O)[C@H](C)[C@@H]2N(CC#CCn3cc(-c4cccc(N)n4)nn3)C(=O)O[C@@]21C", "Staphylococcus aureus", "=", 0.06),
    ("CC[C@H]1OC(=O)[C@H](C)C(=O)[C@H](C)[C@@H](O[C@@H]2O[C@H](C)C[C@H](N(C)C)[C@H]2O)[C@](C)(OC)C[C@@H](C)CN[C@H](C)[C@@H]2N(CCCCn3cc(-c4cccc(N)c4)nn3)C(=O)O[C@@]21C", "Staphylococcus aureus", "=", 0.5),
    ("CO[C@]1(C)C[C@@H](C)CN[C@H](C)[C@@H]2N(CCCCn3cc(-c4cccc(N)c4)nn3)C(=O)O[C@]2(C)[C@@H](CCF)OC(=O)[C@H](C)C(=O)[C@H](C)[C@H]1O[C@@H]1O[C@H](C)C[C@H](N(C)C)[C@H]1O", "Staphylococcus aureus", "=", 1),
]
